Assay: chemical genetic growth profiling, strain panel (AID 1159580);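 further: tested at 20 µM; growth read once vehicle control cultures reached saturation at 30 °C; 1 = growth at the plate median or of vehicle wells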
Conditions: S. cerevisiae deletion strains, growth OD, locus YJL168C, strain set2
Hit rate of the full screen: of about 5,500 compounds, about 2,000 (36%) were called active. About 18% were inconclusive and are not listed. No stated cut-off is given here; in the data, active means normalized growth mostly below about 0.91 (no sharp cut-off); inconclusive means no clear call, values can overlap the other calls; inactive means mostly above about 0.92. The list shows a part of the results.
Return exactly one item of active, inactive

MOLECULE: O=C(CCCN1CC=C(n2c(=O)[nH]c3ccccc32)CC1)c1ccc(F)cc1
ANSWER LABEL: inactive
//
MOLECULE: O=C1c2ccc(O)c(O)c2C(=O)c2c(O)ccc(O)c21
ANSWER LABEL: inactive
//
MOLECULE: Cn1c([N+](=O)[O-])cnc1COC(N)=O
ANSWER LABEL: inactive

INPUT: Record request — test call for Cn1nnnc1SCC1=C(C(=O)O)N2C(=O)C(NC(=O)C(OC=O)c3ccccc3)C2SC1 (configuration not stated)
OUTPUT: inactive

INPUT: Record request — test call for CC(=O)OCC(=O)[C@@]1(O)CCC2C3CCC4=CC(=O)CC[C@]4(C)[C@@]3(F)[C@@H](O)C[C@@]21C (some centres not stated)
OUTPUT: inactive

INPUT: Record request — test call for `COc1c2occc2cc2ccc(=O)oc12`
OUTPUT: inactive

INPUT: Record request — test call for `COc1cc(O)c(C(C)=O)c(OC)c1`
OUTPUT: inactive

INPUT: Record request — test call for `O=C(O)c1cc2cc(Cl)ccc2[nH]1`
OUTPUT: inactive

INPUT: Record request — test call for `Cc1c(N(C)CS(=O)(=O)O)c(=O)n(-c2ccccc2)n1C`
OUTPUT: inactive

INPUT: Record request — test call for `COc1ccc2ccc(=O)oc2c1CC=C(C)C`
OUTPUT: inactive

INPUT: Record request — test call for C[C@]12CCC3C(CC[C@H]4C[C@@H](Cl)CC[C@]34C)C1CCC2=O (some centres not stated)
OUTPUT: inactive

INPUT: Record request — test call for CC1=C(C(=O)O)N2C(=O)[C@@H](NC(=O)[C@H](N)C3=CCC=CC3)C2SC1 (some centres not stated)
OUTPUT: inactive

INPUT: Record request — test call for CC(C)(O)CC[C@@H](O)[C@](C)(O)C1CC[C@@]2(O)C3=CC(=O)C4C[C@@H](O)[C@@H](O)C[C@]4(C)C3CC[C@]12C (some centres not stated)
OUTPUT: inactive

====

Assay: chemical genetic growth profiling, strain panel (AID 1159580)
Settings: S. cerevisiae deletion strains, growth OD, locus YNL071W, strain lat1, stronger effect = lower value
The campaign covered roughly 5,500 compounds. About 2,000 (36%) were called active. Inconclusive results (about 18%) are left out. This is one part of the list.
Threshold 1: normalized growth strictly smaller gives condition met, otherwise condition not met.

INPUT: I wonder whether CC(=O)Oc1ccc2c(c1)CCC1C2CCC2(C)C1CC(OC(C)=O)C2OC(C)=O (stereo not given) has normalized growth below 1. Can you tell?
OUTPUT: condition met

====

// normalized growth lookup, one value per entry
Test: chemical genetic growth profiling, strain panel (AID 1159580)
Conditions: S. cerevisiae deletion strains, growth OD, locus YNL153C, strain GIM3, stronger effect = lower value
Hit rate of the full screen: of about 5,500 compounds, about 2,000 (36%) were called active. Not shown: some 18% with an inconclusive outcome. This is one part of the list.
Please respond with just the number, no unit label.

Recorded normalized growth, per entry:
COMPOUND: CSc1sc(-c2ccn[nH]2)c(-c2ccccc2)c1C#N
MEASURED PROPERTY: normalized growth
NUMERIC RESULT: 0.979
--
COMPOUND: O=C(Oc1ccc(F)cc1)c1cccs1
MEASURED PROPERTY: normalized growth
NUMERIC RESULT: 1.02
--
COMPOUND: CN=C(N)NCCC[C@H](N)C(=O)O
MEASURED PROPERTY: normalized growth
NUMERIC RESULT: 1.02
--
COMPOUND: NNC(=S)Nc1cc(C(F)(F)F)ccc1Cl
MEASURED PROPERTY: normalized growth
NUMERIC RESULT: 0.899

INPUT: What does the record list as normalized growth for `NNC(=S)Nc1ccc(C(F)(F)F)cc1` ?
OUTPUT: 0.912

INPUT: What does the record list as normalized growth for `c1ccc2c(c1)-c1cccc3cccc-2c13` ?
OUTPUT: 0.906

====

// normalized growth lookup, one value per entry
Assay: chemical genetic growth profiling, strain panel (AID 1159580);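 further: tested at 20 µM; growth read once vehicle control cultures reached saturation at 30 °C; 1 = growth at the plate median or of vehicle wells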
Settings: S. cerevisiae deletion strains, growth OD, locus YDL101C, strain DUN1, stronger effect = lower value
About 2,000 (36%) of roughly 5,500 compounds were called active. Not shown: some 18% with an inconclusive outcome. This is one part of the list.
Please respond with just the number, no unit label.

Recorded normalized growth, per entry:
COMPOUND: COC(=O)C[C@H]1C(C)(C)[C@@H](OC(C)=O)[C@@H]2CC3C4CC(=O)O[C@@H](c5ccoc5)[C@]4(C)CCC3[C@@]1(C)C2=O (stereo partly specified)
normalized growth: 1.02

COMPOUND: Cn1cnc([N+](=O)[O-])c1Sc1ncnc2nc[nH]c12
normalized growth: 1.01

COMPOUND: CC(=O)OCC(=O)[C@@]1(O)CCC2C3CCC4=CC(=O)CC[C@]4(C)[C@@]3(F)[C@@H](O)C[C@@]21C (stereo partly specified)
normalized growth: 1.01

COMPOUND: O=C(Nc1ccc(Cl)cc1)c1csc([N+](=O)[O-])c1
normalized growth: 0.943

COMPOUND: Cc1cccc(NCN2C(=O)CCC2=O)n1
normalized growth: 0.956

INPUT: What does the record list as normalized growth for `O=C(NCc1ccc(F)c(Cl)c1)Nc1csc([N+](=O)[O-])c1` ?
OUTPUT: 0.984

INPUT: What does the record list as normalized growth for `O=C1CCC(=O)N1CNc1ccccc1OC(F)(F)F` ?
OUTPUT: 0.963

INPUT: What does the record list as normalized growth for `CC(=O)c1csc([N+](=O)[O-])c1` ?
OUTPUT: 0.951

INPUT: What does the record list as normalized growth for C[C@]12CCC3C(CC[C@H]4CC(=O)CC[C@]34C)C1CCC2=O (stereo partly specified) ?
OUTPUT: 0.978

INPUT: What does the record list as normalized growth for `CCOC(=O)CC1=Nn2c(nnc2-c2cc(Cl)cc(Cl)c2)SC1` ?
OUTPUT: 0.914

INPUT: What does the record list as normalized growth for O=[N+]([O-])c1ccc(C2N(Cc3ccccc3)CCC3CCCCN32)cc1 (stereo unspecified) ?
OUTPUT: 1

====

Assay: chemical genetic growth profiling, strain panel (AID 1159580);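 further: tested at 20 µM; growth read once vehicle control cultures reached saturation at 30 °C; 1 = growth at the plate median or of vehicle wells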
Details: S. cerevisiae deletion strains, growth OD, locus YLR262C, strain YPT6 (second series), stronger effect = lower value
Screen size: about 5,500 compounds; about 2,000 (36%) were called active. Another 18% or so got no clear call; they are omitted. Some of the results follow.
Threshold 0.9: normalized growth strictly smaller gives true (1), otherwise false (0).

Solved cases below.
COMPOUND: O=C1c2ccccc2C(=O)c2c(O)c(O)cc(O)c21
ANSWER LABEL: true (1)
//
COMPOUND: Cn1c([N+](=O)[O-])cnc1COC(N)=O
ANSWER LABEL: false (0)
//
COMPOUND: c1coc(CNc2ncnc3nc[nH]c23)c1
ANSWER LABEL: false (0)
//
COMPOUND: CC(=O)Oc1ccc2c(c1)CCC1C2CC[C@@]2(C)C1CC[C@@H]2OC(C)=O (some centres not stated)
ANSWER LABEL: true (1)
//
COMPOUND: C[C@]12C=CC(=O)C=C1CCC1C2CC[C@]2(C)C(=O)CCC12 (some centres not stated)
ANSWER LABEL: false (0)

Next, consider the following compound.
INPUT: I wonder whether `O=C(/C=C/C(=O)Oc1ccccc1C(=O)O)Oc1ccccc1C(=O)O` has normalized growth below 0.9. Can you tell?
OUTPUT: false (0)

====

// normalized growth lookup, one value per entry
Assay: chemical genetic growth profiling, strain panel (AID 1159580);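 further: tested at 20 µM; growth read once vehicle control cultures reached saturation at 30 °C; 1 = growth at the plate median or of vehicle wells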
Settings: S. cerevisiae deletion strains, growth OD, locus YNL250W, strain rad50, stronger effect = lower value
Hit rate of the full screen: of about 5,500 compounds, about 2,000 (36%) were called active. Roughly 18% stayed inconclusive and do not appear here. The list shows a part of the results.
Please respond with just the number, no unit label.

COMPOUND: CN1CCN(C(c2ccccc2)c2ccccc2)CC1
normalized growth: 0.987

COMPOUND: Cn1nnnc1SCC1=C(C(=O)O)N2C(=O)C(NC(=O)C(OC=O)c3ccccc3)C2SC1 (configuration not stated)
normalized growth: 1.02

COMPOUND: CC(=O)OC1CCC2C3CCc4cc(O)ccc4C3CCC12C (configuration not stated)
normalized growth: 1.01

INPUT: What does the record list as normalized growth for `O=c1[nH]c2ccccc2n1C1CCN(CCCC(c2ccc(F)cc2)c2ccc(F)cc2)CC1` ?
OUTPUT: 0.986

INPUT: What does the record list as normalized growth for CCCC(=O)Nc1ncnc2c1ncn2C1O[C@@H]2COP(=O)(O)O[C@H]2[C@H]1OC(=O)CCC (some centres not stated) ?
OUTPUT: 1.03

INPUT: What does the record list as normalized growth for `O=C(O)c1cc2cc(Cl)ccc2[nH]1` ?
OUTPUT: 0.971

INPUT: What does the record list as normalized growth for CC(=O)Oc1ccc2c(c1)CCC1C2CC[C@@]2(C)C1CC[C@@H]2OC(C)=O (some centres not stated) ?
OUTPUT: 0.972

INPUT: What does the record list as normalized growth for C[C@]12C=CC(=O)C=C1CCC1C2CC[C@]2(C)C(=O)CCC12 (some centres not stated) ?
OUTPUT: 0.99
